All figures here come from ChEMBL document CHEMBL1155498.

The entries below are paired with their reported EC50.
target: Peroxisome proliferator-activated receptor delta (Homo sapiens); test: Agonist activity at Gal4-fused human PPARdelta
Sequence (Q03181 whole entry, the tested form may be a part): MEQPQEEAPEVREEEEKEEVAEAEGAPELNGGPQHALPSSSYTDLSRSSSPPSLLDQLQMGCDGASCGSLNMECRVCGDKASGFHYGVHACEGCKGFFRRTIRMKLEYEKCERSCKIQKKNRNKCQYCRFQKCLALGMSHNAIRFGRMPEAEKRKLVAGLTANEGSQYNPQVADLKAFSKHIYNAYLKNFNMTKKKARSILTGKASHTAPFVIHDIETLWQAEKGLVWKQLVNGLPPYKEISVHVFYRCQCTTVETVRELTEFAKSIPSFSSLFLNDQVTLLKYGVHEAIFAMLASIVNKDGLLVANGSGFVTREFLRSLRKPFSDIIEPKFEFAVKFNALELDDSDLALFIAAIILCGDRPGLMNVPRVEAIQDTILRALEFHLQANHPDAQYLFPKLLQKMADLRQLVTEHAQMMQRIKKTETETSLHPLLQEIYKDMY
Could you write the number and then its unit?

molecule	endpoint-result
CCCCCCCN(CCc1ccc(SC(C)(C)C(=O)O)cc1)C(=O)Nc1ccc(F)cc1F [GSK-9578]	2 µM

Proceed to the following item.
Prompt: Name the recorded EC50 for "Cc1ccc(NC(=O)CN(Cc2ccc(OC(C)(C)C(=O)O)cc2)Cc2ccco2)c(C)c1" .
Completion: 6 µM

----------
biological target: Peroxisome proliferator-activated receptor delta (Mus musculus, UniProt P35396); assay: Agonist activity at Gal4-fused mouse PPARdelta; type: functional
Sequence (P35396 whole entry, the tested form may be a part): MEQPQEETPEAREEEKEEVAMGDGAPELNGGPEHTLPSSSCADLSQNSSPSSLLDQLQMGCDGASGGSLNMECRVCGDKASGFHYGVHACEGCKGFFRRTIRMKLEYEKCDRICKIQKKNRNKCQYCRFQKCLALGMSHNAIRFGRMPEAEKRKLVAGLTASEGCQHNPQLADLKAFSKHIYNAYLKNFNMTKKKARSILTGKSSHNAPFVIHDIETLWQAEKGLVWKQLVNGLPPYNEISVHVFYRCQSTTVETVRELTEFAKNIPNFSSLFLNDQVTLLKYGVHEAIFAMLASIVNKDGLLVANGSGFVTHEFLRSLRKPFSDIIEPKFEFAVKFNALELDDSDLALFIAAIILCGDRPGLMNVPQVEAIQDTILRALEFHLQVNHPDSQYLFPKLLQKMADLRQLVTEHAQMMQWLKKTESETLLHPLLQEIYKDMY
assay-readout: EC50 (nM)
Report only the number, with the unit nM understood.

molecule	value-units	EC50
CCCCCCCN(CCc1ccc(SC(C)(C)C(=O)O)cc1)C(=O)Nc1ccc(F)cc1F [GSK-9578]	nM	2000

Proceed to the following item.
Prompt: Name the recorded EC50 for "Cc1ccc(NC(=O)CN(Cc2ccc(OC(C)(C)C(=O)O)cc2)Cc2ccco2)c(C)c1" .
Completion: 2000
